Recorded values, source ChEMBL document CHEMBL3097989.

protocol-text: Toxicity in human RBC assessed as hemolytic activity relative to control
Type: cell-based, Erythrocyte
condition-parameters: red blood cells (RBC), read-out: Activity
Where a SMILES comes first, the peptide text is derived from it.
quantity: hemolysis (%)
Write it as a number; the unit % goes unstated.

Complete the entry with hemolysis for CC[C@H](C)[C@H](N)C(=O)N[C@@H](CC(C)C)C(=O)N[C@@H](CCCNC(=N)N)C(=O)N[C@@H](Cc1c[nH]c2ccccc12)C(=O)N1CCC[C@H]1C(=O)N[C@@H](Cc1c[nH]c2ccccc12)C(=O)N[C@@H](Cc1c[nH]c2ccccc12)C(=O)N1CCC[C@H]1C(=O)N[C@@H](Cc1c[nH]c2ccccc12)C(=O)N[C@@H](CCCNC(=N)N)C(=O)N[C@@H](CCCNC(=N)N)C(=O)N[C@@H](CCCCN)C(N)=O.Cl.Cl.Cl.Cl.Cl [OMIGANAN PENTAHYDROCHLORIDE] (H-ILRWPWWPWRRK-NH2)
10

----------
Collected MIC90 values appear next to each entry.
Test system: Enterococcus faecalis
protocol-text: Antibacterial activity against Enterococcus faecalis M6534 clinical isolate expressing vanB gene by microdilution test
Format: functional

Look up and report measured MIC90 (Enterococcus faecalis) for the following substance: H-RIVQRIKKWLLKWKKLGY-NH2
256 µg/mL

Look up and report measured MIC90 (Enterococcus faecalis) for the following substance: H-WPKWWKWKRRWGRKKAKKRRG-NH2
128 µg/mL

Look up and report measured MIC90 (Enterococcus faecalis) for the following substance: H-GLLKKWLKKWKEFKRIVGY-NH2
256 µg/mL

----------
System: Acinetobacter sp.
protocol-text: Antibacterial activity against Acinetobacter sp. M5282 clinical isolate expressing blaOXA-51 gene by microdilution test
Assay type: functional
Collected MIC90 values appear next to each entry.

• H-WPKWWKWKRRWGRKKAKKRRG-NH2 = 64 µg/mL

Complete the entry with MIC90 for H-RIVQRIKKWLLKWKKLGY-NH2
64 µg/mL

Complete the entry with MIC90 for H-GLLKKWLKKWKEFKRIVGY-NH2
8 µg/mL

----------
protocol-text: Toxicity in human RBC assessed as hemolytic activity relative to control
Type: cell-based, Erythrocyte
condition-parameters: red blood cells (RBC), read-out: Activity
quantity: hemolysis (%)
Write it as a number; the unit % goes unstated.

These recorded examples may help you get a feel for the data.
- H-FGKEKKAWWRRRKWLK-NH2: 1.5
- H-RIVQRIKKWLLKWKKLGY-NH2: 9.5
- H-GLLKKWLKKWKEFKRIVGY-NH2: 39.8

Complete the entry with hemolysis for H-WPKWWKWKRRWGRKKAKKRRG-NH2
3.4

----------
System: Escherichia coli
protocol-text: Antibacterial activity against Escherichia coli ATCC 25922 by microdilution test
Type: functional
Collected MIC90 values appear next to each entry.

These recorded examples may help you get a feel for the data.
- H-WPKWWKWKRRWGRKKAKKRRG-NH2: 128 µg/mL
- H-RIVQRIKKWLLKWKKLGY-NH2: 32 µg/mL

Complete the entry with MIC90 for H-GLLKKWLKKWKEFKRIVGY-NH2
32 µg/mL

----------
System: Enterococcus gallinarum
protocol-text: Antibacterial activity against Enterococcus gallinarum M2685 clinical isolate expressing vanC1 and vanA gene by microdilution test
Assay type: functional
Collected MIC90 values appear next to each entry.

These recorded examples may help you get a feel for the data.
• H-GLLKKWLKKWKEFKRIVGY-NH2 = 16 µg/mL
• H-RIVQRIKKWLLKWKKLGY-NH2 = 16 µg/mL

Attention now shifts to the item below.
Look up and report measured MIC90 (Enterococcus gallinarum) for the following substance: H-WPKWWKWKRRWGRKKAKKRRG-NH2
16 µg/mL
